pKd values by entry
Biological target: interaction of ICAM-1 with the Leukointegrin CD18/CD11a (LFA-1) (Homo sapiens, UniProt P05107+P20701)
Construct: endogenous in cells; sICAM-1: made in house, secreted from transfected CHO DUX cells
Sequence (P20701 26-1170): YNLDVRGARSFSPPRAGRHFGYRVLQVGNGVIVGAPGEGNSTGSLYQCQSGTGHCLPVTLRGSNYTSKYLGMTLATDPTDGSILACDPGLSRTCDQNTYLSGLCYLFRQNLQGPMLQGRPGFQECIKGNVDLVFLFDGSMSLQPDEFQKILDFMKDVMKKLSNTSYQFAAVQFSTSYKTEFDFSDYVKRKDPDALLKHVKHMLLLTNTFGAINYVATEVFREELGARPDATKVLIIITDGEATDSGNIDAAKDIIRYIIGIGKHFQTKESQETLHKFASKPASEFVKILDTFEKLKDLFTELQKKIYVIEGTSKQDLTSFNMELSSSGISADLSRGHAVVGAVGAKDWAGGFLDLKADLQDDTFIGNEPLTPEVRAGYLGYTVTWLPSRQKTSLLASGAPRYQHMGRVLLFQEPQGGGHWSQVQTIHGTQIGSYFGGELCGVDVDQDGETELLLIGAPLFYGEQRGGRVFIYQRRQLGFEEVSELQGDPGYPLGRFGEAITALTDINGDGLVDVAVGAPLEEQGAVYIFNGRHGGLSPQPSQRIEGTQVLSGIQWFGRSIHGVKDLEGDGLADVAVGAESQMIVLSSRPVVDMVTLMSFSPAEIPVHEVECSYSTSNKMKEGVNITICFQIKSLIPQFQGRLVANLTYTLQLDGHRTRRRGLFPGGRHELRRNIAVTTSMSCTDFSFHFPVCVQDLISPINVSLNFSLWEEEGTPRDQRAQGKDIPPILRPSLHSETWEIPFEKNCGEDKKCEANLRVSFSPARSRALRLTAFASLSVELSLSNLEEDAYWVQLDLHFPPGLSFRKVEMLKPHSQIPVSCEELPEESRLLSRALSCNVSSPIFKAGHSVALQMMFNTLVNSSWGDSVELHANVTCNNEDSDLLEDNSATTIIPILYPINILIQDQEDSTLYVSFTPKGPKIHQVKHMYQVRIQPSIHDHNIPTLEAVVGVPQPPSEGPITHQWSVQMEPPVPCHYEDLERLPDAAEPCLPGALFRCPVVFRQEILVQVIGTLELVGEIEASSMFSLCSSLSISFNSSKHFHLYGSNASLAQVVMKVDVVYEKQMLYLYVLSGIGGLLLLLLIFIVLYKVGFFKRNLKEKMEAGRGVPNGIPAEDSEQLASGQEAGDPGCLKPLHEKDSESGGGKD
Sequence (P05107 23-769): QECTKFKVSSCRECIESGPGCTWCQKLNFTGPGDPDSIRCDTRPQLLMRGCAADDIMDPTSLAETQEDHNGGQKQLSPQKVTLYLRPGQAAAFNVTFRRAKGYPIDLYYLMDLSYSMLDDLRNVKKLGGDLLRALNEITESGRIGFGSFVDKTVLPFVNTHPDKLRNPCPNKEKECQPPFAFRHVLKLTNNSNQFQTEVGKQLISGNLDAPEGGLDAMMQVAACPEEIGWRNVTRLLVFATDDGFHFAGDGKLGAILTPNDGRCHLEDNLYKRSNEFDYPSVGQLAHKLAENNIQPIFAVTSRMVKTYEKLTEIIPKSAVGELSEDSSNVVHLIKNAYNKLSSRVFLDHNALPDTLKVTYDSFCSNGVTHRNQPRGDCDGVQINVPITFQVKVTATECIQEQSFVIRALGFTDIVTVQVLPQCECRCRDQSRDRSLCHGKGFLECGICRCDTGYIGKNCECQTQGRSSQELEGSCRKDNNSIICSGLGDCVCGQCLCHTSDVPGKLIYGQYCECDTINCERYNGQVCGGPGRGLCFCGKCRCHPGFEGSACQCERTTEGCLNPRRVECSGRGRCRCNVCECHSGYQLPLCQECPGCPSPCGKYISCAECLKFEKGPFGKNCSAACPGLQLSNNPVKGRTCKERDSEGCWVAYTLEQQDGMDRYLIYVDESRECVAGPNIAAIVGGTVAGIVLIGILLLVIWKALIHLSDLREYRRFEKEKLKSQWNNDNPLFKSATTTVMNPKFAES
Experiment: Assay to determine inhibition of LFA-1 binding to ICAM-1 (immunopurified LFA-1 on plate-bound sICAM-1, ELISA readout)
Schema: pKd number; meaning minus log10 of the concentration expressed in molar units.

Examples with answers:
compound | pKd
C[C@@]1(Cc2ccc(Br)cc2)C(=O)N(c2cc(Cl)cc(Cl)c2)C(=O)N1CCCCNC(=N)N | 7.05
CC(=O)OCCN1C(=O)N(c2cc(Cl)cc(Cl)c2)C(=O)[C@@]1(C)Cc1ccc(Br)cc1 | 7.15
CC1(Cc2ccccc2)C(=O)N(c2cc(Cl)cc(Cl)c2)C(=O)N1CCO (stereo not shown) | 6.10
C[C@@]1(Cc2ccc(Br)cc2)C(=O)N(c2cc(Cl)cc(Cl)c2)C(=O)N1CCCP(=O)(O)O | 6.82

Q) What measured pKd goes with "C[C@@]1(Cc2ccc(Br)cc2)C(=O)N(c2cc(Cl)cc(Cl)c2)C(=O)N1C1CCN(CC(=O)O)CC1" ?
A) 6.89

Where these numbers come from: patent USRE38132E1
